% Lipid Remaining in liver, 48 h values, listed per item
- test-name: Residual lipid levels in rat liver and spleen (UPLC-MS)
- Type: in vivo
- protocol-conditions: rats, 2 mpk, 48 h, assuming 300 g rat and 15 g liver
Expressed in %, but write only the number.

Q: Entry CCCCCCCCC(CCC)OC(=O)CCCCCCCN(CCO)CCCCCCCC(=O)OC(CCCCCCCC)CCCCCCCC (stereo not shown) has what % Lipid Remaining in liver, 48 h?
Result: 15.9

Q: Consider the compound CCCCCCCCCN(CCO)CCCCCCCC(=O)OC(CCCCCCCC)CCCCCCCC and give its measured % Lipid Remaining in liver, 48 h.
Result: 14

Q: // query % Lipid Remaining in liver, 48 h value for entry CCCCC/C=C\C/C=C\CCCCCCCCC(CCCCCCCC/C=C\C/C=C\CCCCC)OC(=O)CCCN(C)C [MC3, DLin-MC3-DMA, reference compound]
Result: 87

Q: Look up % Lipid Remaining in liver, 48 h for this compound: CCCCCCCCC(C)OC(=O)CCCCCCCN(CCO)CCCCCCCC(=O)OC(CCCCCCCC)CCCCCCCC (stereo not shown)
Result: 7.22

Q: Which % Lipid Remaining in liver, 48 h reading was recorded for the compound CCCCCCCCCOC(=O)CCCN(CCO)CCCCCCCC(=O)OC(CCCCCCCC)CCCCCCCC ?
Result: 20

Q: GET /values?readout=% Lipid Remaining in liver, 48 h&item= CCCCCCCCCOC(=O)CCCCCCCN(CCO)CCCCCCCC(=O)OC(CCCCCCCC)CCCCCCCC
Result: 0.018

###

Each entry below carries its reported Fold increase in Luc expression relative to MC3, Intramuscular (0.001 mpk dose).
- Test system: luciferase (Luc) mRNA
- test-name: Luc expression (total flux) after intramuscular administration
- Format: in vivo, mice
- protocol-conditions: intramuscular, 0.001 mpk
Hey, just send me the number, nothing else.

Observe how each entry below is paired with its result.
>>> quantitative_result("CCCCCCCCCOC(=O)CCCCCCCN(CCCCO)CCCCCCCC(=O)OC(CCCCCCCC)CCCCCCCC [Compound 20]")
3.70
>>> quantitative_result("CCCCCCCCCN(CCO)CCCCCCCC(=O)OC(CCCCCCCC)CCCCCCCC [Compound 3]")
0.51
>>> quantitative_result("CCCCCCCCC(CCCCCCCC)OC(=O)CCCCCCCN(CCO)CCCCCCCC(=O)OC(CCCCCCCC)CCCCCCCC [Compound 29]")
0.11

// next entry
Q: Returns the measured Fold increase in Luc expression relative to MC3, Intramuscular (0.001 mpk dose) for the input compound. Input: CCCCCCCCCOC(=O)CCCN(CCO)CCCCCCCC(=O)OC(CCCCCCCC)CCCCCCCC [Compound 26]
Result: 0.56

###

Each entry below carries its recorded PDI (Polydispersity index).
- test-name: Particle size and polydispersity index of nanoparticle compositions (Zetasizer Nano ZS)
- Type: physicochemical
- protocol-conditions: lipid nanoparticle, ±SD within one assay run (Table 37)
Just the number, please, no unit attached.

The cases that follow already have their PDI (Polydispersity index) on record.
>>> quantitative_result("CCCCCCCCCOC(=O)CCCN(CCO)CCCCCCCC(=O)OC(CCCCCCCC)CCCCCCCC [Compound 26]")
0.16
>>> quantitative_result("CCCCCCCCCOC(=O)CCCCCCCN(CCCCCCCC(=O)OC(CCCCCCCC)CCCCCCCC)CCCNC(=O)C(C)(C)COC [Compound 281]")
0.14

Q: Reported PDI (Polydispersity index), compound CCCCCCCCCOC(=O)CCCCCCCN(CCO)CCCCCCCC(=O)OCCCCCCCCC [Compound 138] : ____
Result: 0.14

Recorded values, source patent US12263248B2.
